# growth inhibition listing for each entry below
- measurement_protocol: NCI Yeast Anticancer Drug Screen. Data for the sgs1 mgt1 strain (AID 161);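 note: 0% = growth of cultures given vehicle only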
- measurement_setup: S. cerevisiae sgs1 mgt1 strain, at 50.0 µM (retest, dose inferred, filed as 5.0), hits give high values
This is part of a sample that, as a whole, favours compounds with a hit. Of some 79,000 tested, about 15% had one in any assay.

| molecule | growth inhibition, % |
| --- | --- |
| COc1cc(O)c2c(c1)C(=O)c1cc3c(c(O)c1C2=O)C(OC1OC(C)C(OC)C(O)C1OC)C(OC)C(C)(O)C3=O (stereo not given) | 98 |
| c1ccc(CSC(SCc2ccccc2)(c2ccccc2)c2ccccc2)cc1 | 90 |
| COc1ccc(-c2c(C#N)c(-c3ccc(C)cc3)n(NS(=O)(=O)c3ccccc3)c(=O)c2C#N)cc1 | 75 |
| OC1CCC(O)CC1 (stereo not given) | 5 |
| CS(=O)(=O)OCCN(CCOS(C)(=O)=O)c1ccc(C=Nc2ccc(-c3csc(Cc4ccccc4)n3)cc2)c(Cl)c1 | 83 |
| OC1CN(Cc2ccccc2)C[C@@H]1O (stereo not given in full) | 99 |
| NNc1c2ccccc2nc2ccccc12 | 47 |
| O=[N+]([O-])c1cccc2nc3ccccc3c(NCCN(CCO)CCO)c12 | 98 |
| CC(=O)Oc1cccc2cccnc12 | 100 |
| COC(=O)C(CC(C)=O)CS(=O)(=O)CC(=O)C(=O)Nc1cccc([N+](=O)[O-])c1 (stereo not given) | 99 |
